// values below are reported Emax
# Test system: tissue strips obtained from Landrace pig bladders
# assay procedure: Functional potassium channel opening activity in isolated bladder strips (field-stimulated twitch)
# experimental context: Sus scrofa; maximal efficacy relative to P1075; Landrace pig bladder strips, field stimulation 0.05 Hz
# Method: Compounds were evaluated for functional potassium channel opening activity using tissue strips obtained from Landrace pig bladders. Landrace pig bladders were obtained from female Landrace pigs of 930 kg. […] The maximal efficacy of each compound (expressed as % relative to P1075) is reported. […] Agonist potencies were also expressed as an index relative to P1075. The index was calculated by dividing the ED50 for P1075 by the ED50 for the test agonist in a given tissue. […]

Past entries and their recorded results:
INSERT INTO results (compound, measurement_target, measured_endpoint, data_value) VALUES
  ('CC(C)(C)C(NC(=O)c1cc(Cl)cc(Cl)c1)Nc1c(Nc2cccnc2)c(=O)c1=O (stereo not shown)', 'tissue strips obtained from Landrace pig bladders', 'Emax', '78%'),
  ('CC(C)(C)C(NC(=O)c1ccc(I)cc1)Nc1c(Nc2cccnc2)c(=O)c1=O (stereo not shown)', 'tissue strips obtained from Landrace pig bladders', 'Emax', '73%'),
  ('CC(C)(C)C(NC(=O)CCc1ccccc1)Nc1c(Nc2cccnc2)c(=O)c1=O (stereo not shown)', 'tissue strips obtained from Landrace pig bladders', 'Emax', '99%'),
  ('CC(C)(C)C(NC(=O)c1cccc(F)c1)Nc1c(Nc2cccnc2)c(=O)c1=O (stereo not shown)', 'tissue strips obtained from Landrace pig bladders', 'Emax', '89%'),
  ('CC(C)(C)C(NC(=O)c1cc(F)cc(F)c1)Nc1c(Nc2cccnc2)c(=O)c1=O (stereo not shown)', 'tissue strips obtained from Landrace pig bladders', 'Emax', '94%'),
  ('Cc1cccc(C(=O)NC(Nc2c(Nc3cccnc3)c(=O)c2=O)C(C)(C)C)c1 (stereo not shown)', 'tissue strips obtained from Landrace pig bladders', 'Emax', '100%'),
  ('CC(C)(C)C(NC(=O)c1cccc(I)c1)Nc1c(Nc2cccnc2)c(=O)c1=O (stereo not shown)', 'tissue strips obtained from Landrace pig bladders', 'Emax', '84%'),
  ('C=CCC(C)(C)C(NC(=O)c1ccc(Cl)cc1)Nc1c(Nc2cccnc2)c(=O)c1=O (stereo not shown)', 'tissue strips obtained from Landrace pig bladders', 'Emax', '92%'),
  ('COc1cc(OC)cc(C(=O)NC(Nc2c(Nc3cccnc3)c(=O)c2=O)C(C)(C)C)c1 (stereo not shown)', 'tissue strips obtained from Landrace pig bladders', 'Emax', '75%'),
  ('O=C(NC(Nc1c(Nc2cccnc2)c(=O)c1=O)C(F)(F)C(F)(F)F)c1cccc(Cl)c1 (stereo not shown)', 'tissue strips obtained from Landrace pig bladders', 'Emax', '64%');

-- ask Given the entry CC(C)(C)C(NC(=O)c1ccc(Cl)cc1)Nc1c(Nc2cccnc2)c(=O)c1=O (stereo not shown) , report its measured Emax.
-- reply 79%

-- ask And CC(C)(C)C(NC(=O)c1ccc(Cl)cc1)Nc1c(Nc2cccnc2Cl)c(=O)c1=O (stereo not shown) ?
-- reply 81%

-- ask CCC(CC)C(NC(=O)c1ccc(Cl)cc1)Nc1c(Nc2cccnc2)c(=O)c1=O (stereo not shown) , same question.
-- reply 68%

----------
# Test system: primary cultured guinea-pig urinary bladder (GPB) cells
# assay procedure: Membrane hyperpolarization (MHP) assay, DiBAC(4)3 / FLIPR
# Type: cell-based
# experimental context: membrane hyperpolarization in guinea-pig bladder cells
measured endpoint: EC50 (nM)
A number alone suffices; assume nM.

-- ask # query: EC50 of entry CC(C)(Cc1ccccc1)C(NC(=O)c1ccc(Cl)cc1)Nc1c(Nc2cccnc2)c(=O)c1=O (stereo not shown) [Example 18]
-- reply 510

----------
# Test system: tissue strips obtained from Landrace pig bladders
# assay procedure: Functional potassium channel opening activity in isolated bladder strips (field-stimulated twitch)
# experimental context: amount causing 50% of the agent's maximal response; Landrace pig bladder strips; read-out: ED50 (the source's name)
measured endpoint: pEC50
In plain terms, pEC50 is the concentration in mol/L turned into minus its base-10 logarithm.

-- ask pEC50 of CC(C)(Cc1ccccc1)C(NC(=O)c1ccc(Cl)cc1)Nc1c(Nc2cccnc2)c(=O)c1=O (stereo not shown) on tissue strips obtained from Landrace pig bladders?
-- reply 4.77

----------
Each entry below lists one item and its recorded Emax value.
# System: tissue strips obtained from Landrace pig bladders
# assay procedure: Functional potassium channel opening activity in isolated bladder strips (field-stimulated twitch)
# experimental context: Sus scrofa; maximal efficacy relative to P1075; Landrace pig bladder strips, field stimulation 0.05 Hz
Reply with just the number (in %).

Worked examples, 3 compounds total:
INSERT INTO assay_data (compound, measured_endpoint, units_symbol, data_value) VALUES
  ('CC(C)(Cc1ccccc1)C(NC(=O)c1ccc(Cl)cc1)Nc1c(Nc2cccnc2Cl)c(=O)c1=O (stereo not shown)', 'Emax', '%', 76),
  ('Cc1cccc(C(=O)NC(Nc2c(Nc3cccnc3Cl)c(=O)c2=O)C(C)(C)C)c1 (stereo not shown)', 'Emax', '%', 99),
  ('Cc1ccc(C(=O)NC(Nc2c(Nc3cccnc3)c(=O)c2=O)C(C)(C)C)cc1 (stereo not shown)', 'Emax', '%', 54);

Now take the following compound into account.
-- ask Look up Emax: CC(C)(C)C(NC(=O)c1cccc(Cl)c1)Nc1c(Nc2cccnc2)c(=O)c1=O (stereo not shown)
-- reply 98

The measured values listed here are drawn from patent US20020147230A1.
